# measurement-notes: Genotoxicity in Salmonella typhimurium TA1535/pSK1002 assessed as induction ratio at 0.625 mg/ml after 2 hrs by umuC assay in presence of Sprague-Dawley rat liver S9 fraction
# Type: toxicity, organism-based
# assay-conditions: salmonella enterica subsp. enterica serovar typhimurium
Answer each item with its documented fold induction at 2 h, 0.625 mg/ml.
Lab note: jot the number down without any unit.

fold induction at 2 h, 0.625 mg/ml reported for this compound Fc1cccc(/C=N/NC(=S)Nc2cccc3ccccc23)c1F : 1.39

fold induction at 2 h, 0.625 mg/ml reported for this compound Fc1ccc(F)c(/C=N/NC(=S)Nc2cccc3ccccc23)c1 : 5.34

* * *

Answer each item with its documented fold induction at 2 h, 2.5 mg/ml.
# measurement-notes: Genotoxicity in Salmonella typhimurium TA1535/pSK1002 assessed as induction ratio at 2.5 mg/ml after 2 hrs by umuC assay in presence of Sprague-Dawley rat liver S9 fraction
# Type: toxicity, organism-based
# assay-conditions: salmonella enterica subsp. enterica serovar typhimurium
Lab note: jot the number down without any unit.

fold induction at 2 h, 2.5 mg/ml reported for this compound Fc1cccc(/C=N/NC(=S)Nc2cccc3ccccc23)c1F : 3.99

fold induction at 2 h, 2.5 mg/ml reported for this compound Fc1ccc(F)c(/C=N/NC(=S)Nc2cccc3ccccc23)c1 : 1.39

* * *

# measurement-notes: Genotoxicity in Salmonella typhimurium TA1535/pSK1002 assessed as induction ratio at 0.3125 mg/ml after 2 hrs by umuC assay in absence of Sprague-Dawley rat liver S9 fraction
# Format: toxicity, organism-based
# assay-conditions: salmonella enterica subsp. enterica serovar typhimurium
property-measured: fold induction at 2 h, 0.3125 mg/ml
Lab note: jot the number down without any unit.

fold induction at 2 h, 0.3125 mg/ml reported for this compound Fc1ccc(F)c(/C=N/NC(=S)Nc2cccc3ccccc23)c1 : 1.3

fold induction at 2 h, 0.3125 mg/ml reported for this compound Fc1cccc(/C=N/NC(=S)Nc2cccc3ccccc23)c1F : 1.79
